System: ITGA6 (ERα target gene)
Test: qPCR of ERα target gene ITGA6 in Hs578T-ERα cells
Type: cell-based
Details: ligand 24 hr; DPN 10 nM, liquiritigenin 100 nM
MEASURED PARAMETER: ITGA6 expression in Hs578T-ERα cells

INSERT INTO results (compound, tested_system, measured_parameter, readout_value) VALUES
  ('CCCc1c(-c2ccc(O)cc2)nn(-c2ccc(O)cc2)c1-c1ccc(O)cc1', 'ITGA6 (ERα target gene)', 'ITGA6 expression in Hs578T-ERα cells', 'up-regulated'),
  ('C[C@]12CC[C@@H]3c4ccc(O)cc4CC[C@H]3[C@@H]1CC[C@@H]2O [E2, 17β-estradiol]', 'ITGA6 (ERα target gene)', 'ITGA6 expression in Hs578T-ERα cells', 'up-regulated');

----------
Molecular target: ERβ (Homo sapiens)
Sequence (Q92731 whole entry): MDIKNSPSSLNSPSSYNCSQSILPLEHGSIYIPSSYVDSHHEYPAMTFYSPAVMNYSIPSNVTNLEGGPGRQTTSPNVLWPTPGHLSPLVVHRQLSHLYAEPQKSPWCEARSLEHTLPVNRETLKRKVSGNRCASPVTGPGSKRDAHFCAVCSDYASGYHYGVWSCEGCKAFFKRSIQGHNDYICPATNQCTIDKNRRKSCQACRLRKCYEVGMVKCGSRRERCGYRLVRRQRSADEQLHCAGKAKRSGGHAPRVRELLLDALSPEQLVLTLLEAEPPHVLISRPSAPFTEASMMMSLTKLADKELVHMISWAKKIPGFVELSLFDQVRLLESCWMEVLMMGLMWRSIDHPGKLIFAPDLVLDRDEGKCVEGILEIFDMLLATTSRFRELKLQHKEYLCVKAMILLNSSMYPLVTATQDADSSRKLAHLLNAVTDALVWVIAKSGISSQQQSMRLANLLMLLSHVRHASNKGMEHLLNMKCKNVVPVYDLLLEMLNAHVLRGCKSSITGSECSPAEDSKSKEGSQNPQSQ
Experiment: Luciferase reporter assay in Hs578T-ERβLuc cells
MEASURED PARAMETER: EC50 (nM)
Just the number in nM, nothing appended.

Which EC50 reading was recorded for the compound CCCc1c(-c2ccc(O)cc2)nn(-c2ccc(O)cc2)c1-c1ccc(O)cc1 ? 26

----------
Biological target: ERα (Homo sapiens, UniProt P03372)
Sequence (P03372 whole entry): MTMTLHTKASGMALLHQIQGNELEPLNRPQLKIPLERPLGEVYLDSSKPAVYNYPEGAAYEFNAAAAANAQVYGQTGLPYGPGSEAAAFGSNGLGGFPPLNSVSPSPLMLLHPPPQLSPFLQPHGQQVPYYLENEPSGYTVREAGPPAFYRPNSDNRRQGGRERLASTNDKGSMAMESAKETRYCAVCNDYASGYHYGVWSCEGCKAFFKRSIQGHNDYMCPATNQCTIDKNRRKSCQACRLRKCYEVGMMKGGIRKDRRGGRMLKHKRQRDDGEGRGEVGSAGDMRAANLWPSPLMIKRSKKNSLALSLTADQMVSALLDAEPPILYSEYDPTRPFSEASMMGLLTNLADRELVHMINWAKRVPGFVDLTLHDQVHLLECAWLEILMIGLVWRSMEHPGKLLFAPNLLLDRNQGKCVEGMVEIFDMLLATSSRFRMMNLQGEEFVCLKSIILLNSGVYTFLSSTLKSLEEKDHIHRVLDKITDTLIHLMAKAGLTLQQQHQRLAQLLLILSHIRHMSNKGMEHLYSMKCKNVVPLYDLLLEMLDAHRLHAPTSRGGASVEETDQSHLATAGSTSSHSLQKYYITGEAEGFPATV
Assay: Luciferase reporter assay in Hs578T-ERαLuc cells
MEASURED PARAMETER: EC50 (pM)
Just the number in pM, nothing appended.

Notebook entry, ERα (Homo sapiens, UniProt P03372) assay: EC50 of CCCc1c(-c2ccc(O)cc2)nn(-c2ccc(O)cc2)c1-c1ccc(O)cc1 = ? 16
